# TEST_TARGET: Ubiquitin carboxyl-terminal hydrolase 2 (Homo sapiens)
# ASSAY_OVERVIEW: Ub-rhodamine 110 based assay for inhibitors Ubiquitin-specific Protease USP2a; also: nearly all actives have a fitted effect of over 50% in size
# REPORTED_CONDITIONS: USP2a Ub-rhodamine110 cleavage, fluorescence; series mostly up to 38.3 µM
Results filed as inconclusive are left out. The source made the active and inactive calls. Calls follow the shape of the dose curve; as a rule, active = well fitted inhibition curve with a large enough effect; inconclusive = small, poorly fitted or top-dose-only effect, or effect the other way; inactive = flat fitted curve, though single readings scatter.
Reply using exactly one outcome from true (1) for active, false (0) for inactive

In this assay, the call recorded for `O=C(O[C@@H]1OC2COC(=O)c3cc(O)c(O)c(O)c3-c3c(cc(O)c(O)c3O)C(=O)O[C@@H]([C@H]1O)[C@@H]2O)c1cc(O)c(O)c(O)c1` was what? true (1)

What did the test return for `COCCNCC(=O)N1CCCCCC1` ? false (0)

Identify the outcome logged in this assay for the compound shown: `Cc1ccc(C(=O)NCCNS(=O)(=O)c2ccccc2)cc1` false (0)

I'd appreciate the recorded outcome for `COc1ccc2[nH]c(=O)c(CN(C)C(=O)C3CCCCC3)cc2c1` from this test. false (0)

Hi, sorry to bother you, what did the test record for Cc1ccc(C2=[N+]([O-])C(C)N(O)C2(C)C)o1 (configuration not stated) ? false (0)

Please let me know the test result on file for `Cc1cc(NS(=O)(=O)c2ccc(Nc3nc(-c4ccc(C)c(C)c4)cs3)cc2)no1` . true (1)

Record request — test call for `Cc1onc(-c2ccccc2)c1C(=O)N1CCN(C)CC1` false (0)

// return assay outcome for `CN=c1scc(-c2ccccc2F)n1/N=C/c1ccc(O)c(O)c1O` true (1)
